tested on: Staphylococcus aureus; experiment: Antibacterial activity against Staphylococcus aureus ATCC 25923 by microdilution method; assay type: functional
The source made the active and inactive calls. No cut-off for these calls is given here.
recordedEndpoint: MIC

Before answering, review these 5 worked examples.
OC(Cn1cncn1)(Cn1cncn1)c1ccc(F)cc1F [FLUCONAZOLE] :: inactive
O=c1cc(CCl)oc(CN2CCN(c3ccc(C(F)(F)F)cc3)CC2)c1O :: 16 µg/mL
O=c1cc(CCl)oc(CN2CCN(c3ccc(Cl)cc3)CC2)c1O :: 8 µg/mL
CC(=O)N1CCN(c2ccc(OCC3COC(Cn4ccnc4)(c4ccc(Cl)cc4Cl)O3)cc2)CC1 (stereo not given) [KETOCONAZOLE] :: inactive
O=c1cc(CCl)oc(CN2CCN(c3cccc(C(F)(F)F)c3)CC2)c1O :: 32 µg/mL

**Query** Provide only the value of recorded MIC for `COc1cccc(N2CCN(Cc3oc(CCl)cc(=O)c3O)CC2)c1`
**Result** 64 µg/mL

**Query** Indicate its recorded MIC; the compound in question is CC1COc2c(N3CCN(C)CC3)c(F)cc3c(=O)c(C(=O)O)cn1c23 (stereo not given) [OFLOXACIN]
**Result** 0.25 µg/mL

**Query** For the compound `O=c1cc(CCl)oc(CN2CCN(c3ccc(F)cc3)CC2)c1O` , give its measured MIC value.
**Result** 16 µg/mL

**Query** Input `COc1ccc(N2CCN(Cc3oc(CCl)cc(=O)c3O)CC2)cc1` , output reported MIC.
**Result** 32 µg/mL

**Query** Give the reported MIC for this compound. `O=c1cc(CCl)oc(CN2CCN(c3ccccc3F)CC2)c1O`
**Result** 16 µg/mL

----------
For each entry below, report its MIC value.
tested on: Proteus mirabilis; experiment: Antibacterial activity against Proteus mirabilis ATCC 7002 by microdilution method; format: functional

**Query** Name the recorded MIC of `O=c1cc(CCl)oc(CN2CCN(c3ccc(Cl)cc3)CC2)c1O` , assay system Proteus mirabilis.
**Result** 64 µg/mL

**Query** Send back Proteus mirabilis MIC of `O=c1cc(CCl)oc(CN2CCN(c3ccccc3F)CC2)c1O` only.
**Result** 32 µg/mL

**Query** Give MIC; test system Proteus mirabilis; compound `COc1ccccc1N1CCN(Cc2oc(CCl)cc(=O)c2O)CC1`
**Result** 32 µg/mL

**Query** Name the value of MIC reported for `COc1ccc(N2CCN(Cc3oc(CCl)cc(=O)c3O)CC2)cc1` when tested on Proteus mirabilis.
**Result** 32 µg/mL

**Query** Find the measured MIC of `O=c1cc(CCl)oc(CN2CCN(c3ccccc3Cl)CC2)c1O` with Proteus mirabilis as test system.
**Result** 64 µg/mL

**Query** # return MIC for `O=c1cc(CCl)oc(CN2CCN(c3ccc(Cl)c(Cl)c3)CC2)c1O` , test system: Proteus mirabilis
**Result** 32 µg/mL

**Query** Answer with MIC of CC1COc2c(N3CCN(C)CC3)c(F)cc3c(=O)c(C(=O)O)cn1c23 (stereo not given) measured for Proteus mirabilis.
**Result** < 0.12 µg/mL

**Query** Give the observed MIC of `O=c1cc(CCl)oc(CN2CCN(c3cccc(Cl)c3)CC2)c1O` for Proteus mirabilis.
**Result** 32 µg/mL

**Query** Tell me its MIC on Proteus mirabilis: `O=c1cc(CCl)oc(CN2CCN(c3ccc(F)cc3)CC2)c1O`
**Result** 16 µg/mL

**Query** Lab note: Proteus mirabilis assay, enter MIC for `O=c1cc(CCl)oc(CN2CCN(c3ccc(C(F)(F)F)cc3)CC2)c1O` here
**Result** 16 µg/mL

**Query** State, for Proteus mirabilis, measured MIC of the compound listed here: `COc1cccc(N2CCN(Cc3oc(CCl)cc(=O)c3O)CC2)c1`
**Result** 32 µg/mL

**Query** Specify the recorded MIC for `O=c1cc(CCl)oc(CN2CCN(c3cccc(C(F)(F)F)c3)CC2)c1O` , system: Proteus mirabilis.
**Result** 16 µg/mL

**Query** Give Proteus mirabilis MIC for the following compound: `CC1(C)S[C@@H]2[C@H](NC(=O)[C@H](N)c3ccccc3)C(=O)N2[C@H]1C(=O)O`
**Result** 2 µg/mL

**Query** State measured MIC of the compound `C[C@H]1COc2c(N3CCN(C)CC3)c(F)cc3c(=O)c(C(=O)O)cn1c23.C[C@H]1COc2c(N3CCN(C)CC3)c(F)cc3c(=O)c(C(=O)O)cn1c23.O` with Proteus mirabilis.
**Result** < 0.12 µg/mL
